target entity: T1, SARS-CoV-2 Gamma Variant RBD (SARS-CoV-2 Gamma variant)
T1 construct: domain: RBD; coated on ELISA plates
experimental details: ELISA, RBD coated
recorded metric: EC50 (nM)
Answer format: numeric, nM implied, no suffix.

binder	recorded metric	observed measurement
PP1148 MBP-5HVZ-PAPA-R5a-C5-H6 (VHH, Form: Dimer) VHH: QVQLVESGGGLVQPGGSLRLSCAASGDIFSINALHWFRQAPGKQREEVAAITSGGSTGYADSVKGRFTISRDNAKNTVYLQMNSLKPEDTAVYYCAAQQARGGLDSDYWGQGTQVTVSS	EC50	9.06

Now look at this entry.
// lookup EC50 for PP1095 MBP-5HVZ-PAPA-RN-2-H6 (VHH) VHH: QVQLVESGGGLVQPGGSLRLSCAASGSYFSKNAVHWYRQAPGKGREWVAALTNSGSGNYKDSVKGRFTISRDNAKNTVYLQMNSLKPEDTAVYYCTANISESTGQGYDYWGQGTQVTVSS
90.9
